System: 435261-313-R-J1-PDC complex spheroid viability;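 further: spheroids exposed to the agents for seven days before readout; percent of vehicle control viability with DMSO wells as 100%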
Assay: Anticancer human tumor 435261-313-R-J1-PDC patient-derived colon adenocarcinoma cell line growth inhibition [GQUAD]
Conditions: second compound 3.16 µM; first compound 0.1 µM; hits give low values
MEASURED_PARAMETER: viability, T/C (%)

INSERT INTO measurements (compound, target_under_test, uom, experimental_result) VALUES
  ('C=CC(=O)N1CCN(c2nc(=O)n(-c3c(C)ccnc3C(C)C)c3nc(-c4c(O)cccc4F)c(F)cc23)C(C)C1 (stereo not drawn) + CN(C)c1ccc(Nc2c3ccc(NC(=O)CCN4CCCC4)cc3nc3cc(NC(=O)CCN4CCCC4)ccc23)cc1', '435261-313-R-J1-PDC complex spheroid viability', '%', 98.3),
  ('COc1cc(C2c3cc4c(cc3C(OC3OC5COC(C)OC5C(O)C3O)C3COC(=O)C23)OCO4)cc(OC)c1O (stereo not drawn) + CN(C)c1ccc(Nc2c3ccc(NC(=O)CCN4CCCC4)cc3nc3cc(NC(=O)CCN4CCCC4)ccc23)cc1', '435261-313-R-J1-PDC complex spheroid viability', '%', 69.2),
  ('CC1COCCN1c1cc(-c2ccnn2C)c2ccnc(-c3ccn[nH]3)c2n1 (stereo not drawn) + CN(C)c1ccc(Nc2c3ccc(NC(=O)CCN4CCCC4)cc3nc3cc(NC(=O)CCN4CCCC4)ccc23)cc1', '435261-313-R-J1-PDC complex spheroid viability', '%', 48.3);
